observationType: melting point (°C)
Answers are plain numbers, in °C.

{"columns": ["smiles", "measurementUnit", "melting point"],
 "data": [
  ["COc1ccc2ccc(Nc3cc(-c4ccc(C(F)(F)F)cc4)ncn3)cc2n1", "°C", 199]
]}

Let us move to another entry and its melting point.
Ask: Provide only the value of recorded melting point for Cc1cc(Cn2nc(-c3ccccc3)oc2=O)cc(C)c1O
Result: 135

* * *

Please respond with reported melting point for every item in the list.

Provide the reported melting point of each entry below, same order.
1. NC(=NO)c1ncn2c1N1CCN=C1c1ccccc1-2
2. CCCCCCCSc1nn2c(=O)c(OC)cnc2s1
3. O=C(NCCOc1ccc(CC(Oc2ccc(Cl)cc2)C(=O)O)cc1)c1ccc(-c2ccccn2)cc1 (stereo not given)
4. Cc1cc2oc(=O)c3c(c2cc1N)CCN(CCN1CC2CCC(CC2)C1)C3
5. CCCC1C(=O)N(S(=O)(=O)c2ccc3ccccc3c2)C2CCN(C(=O)CN3CCCCC3)C12 (stereo not given)
6. Cc1cccc(C)c1OCC(=O)NC(C)C(N)=O (stereo not given)
7. COc1ccc(-c2ccc(C)cn2)c(F)c1F

Result:
1. 209 to 212 °C
2. 68 to 71 °C
3. 155 to 156 °C
4. 142 to 143 °C
5. 161 to 163 °C
6. 177 to 178 °C
7. 73 °C

Provide the reported melting point of each entry below, same order.
1. CC1=NN(C(=O)NS(=O)(=O)c2ncccc2C(F)(F)F)C(C)(c2ccccc2)C1 (stereo not given)
2. O=C1c2ccccc2S(=O)(=O)N1CCCCOc1ccc(OCc2ccccc2)cc1
3. CC(=O)c1c(-c2ccccc2Cl)nc2occn12

Result:
1: 152 to 153 °C; 2: 82 to 84 °C; 3: 121 to 122 °C

Provide the reported melting point of each entry below, same order.
1. CSc1ncc2ccc(N)nc2n1
2. Cc1c(CN2CCc3c(c4cccc(F)c4n3C)C2=O)ncn1S(=O)(=O)N(C)C
3. CS(=O)(=O)NC(=O)c1ccc(Cl)cc1NC(=O)c1cc(-c2ccc(Cl)cc2)oc1C(F)(F)F
4. CN(Cc1cc2c3c(c1)c(=O)c(C(=O)NCc1ccc(F)cc1)cn3CC(=O)N2C)C[C@@H](O)c1ccccc1
5. COc1ccc(-c2ccc3[nH]c(C(=O)O)cc3c2)cc1
6. CCCn1nc(C(C)C)c(C(=O)OC(C)OC(=O)OC2CCCCC2)c1Cc1ccc(-c2ccccc2-c2nnn[nH]2)cc1 (stereo not given)
7. O=C(O)C1Cc2cc3c(=O)c4ccccc4oc3c(Cl)c2O1 (stereo not given)

Result:
["> 250 °C", "162 to 166 °C", "259 to 262 °C", "150 to 152 °C", "> 230 °C", "79 to 83 °C", "290 to 293 °C"]

Provide the reported melting point of each entry below, same order.
1. CCOC(=O)c1noc2ccccc12
2. Cc1cc(-c2ccc(C(F)(F)F)cc2)nc2c(C(=O)Nc3cccc(S(C)(=O)=O)c3)cnn12
3. CC(C)(C)OC(=O)NCCNC(=O)c1ncccc1Oc1ccccc1

Result:
["53 to 55 °C", "198 to 200 °C", "97 to 98 °C"]
